Listed here are compounds together with their documented Permeability into the brain: content in Plasma.
conditions: Slc:ICR, mouse, not told, iv

See these solved cases before continuing.
INSERT INTO assay_data (compound, observed_result) VALUES
  ('CN(C)c1ccc(-c2ccc3ccccc3n2)cc1 [Compound N-310, 2-[(4-dimethylamino)-phenyl]quinoline]', '1.0 % ID/g or ml'),
  ('Nc1ccc(/C=C/c2nc3cc(F)ccc3o2)cc1 [BF-140, 2-(4-amino)styryl-5-fluorobenzoxazole]', '1.1 % ID/g or ml'),
  ('CN(C)c1ccc2cc(-c3nc4cc(F)ccc4s3)ccc2c1 [BF-154]', '1.4 % ID/g or ml');

So what does the record say about Permeability into the brain: content in Plasma for C(=C\c1nc2ccccc2[nH]1)/c1ccccc1 [Compound N-491, 2-styrylbenzimidazole] ?
2.3 % ID/g or ml

###

Listed here are molecules together with their documented Permeability into the brain: content in Plasma.
conditions: Slc:ICR, mouse, not told, iv

INSERT INTO measurements (molecular_string, observed_result) VALUES
  ('CNc1ccc(/C=C/C=C/c2nc3ccccc3o2)cc1', '1.0 % ID/g or ml'),
  ('CN(C)c1ccc(/C=C/c2nc3cc(F)ccc3o2)cc1', '1.3 % ID/g or ml'),
  ('CNc1ccc(/C=C/c2ccc3ccccc3n2)cc1', '4.5 % ID/g or ml'),
  ('CN(C)c1ccc(/C=C/c2ccc3ccccc3n2)c(O)c1', '2.7 % ID/g or ml'),
  ('CNc1ccc(C=Cc2ccc3ccccc3n2)c(CF)c1', '1.2 % ID/g or ml');

Would you kindly look at the next entry?
So what does the record say about Permeability into the brain: content in Plasma for Clc1ccc(/C=C/c2nc3ccccc3[nH]2)cc1 ?
2.8 % ID/g or ml

###

details: Slc:ICR, mouse, not told, iv
Where a name gives a salt, the structure may show the parent alone.
Listed here are compounds together with their documented Permeability into the brain: content in Plasma.

INSERT INTO measurements (compound, observed_result) VALUES
  ('CN(C)c1ncc(/C=C/c2nc3ccccc3s2)s1 [BF-196]', '1.8 % ID/g or ml');

So what does the record say about Permeability into the brain: content in Plasma for CCN(CC)c1ccc(/C=C/c2nc3ccccc3o2)cc1 [BF-125, hydrochloride] ?
2.5 % ID/g or ml

Also, CCN(CC)c1ccc(/C=C/c2nc3ccccc3s2)cc1 [BF-124, hydrochloride] please.
1.6 % ID/g or ml

Also, CNc1ccc(-c2nc3ccc(O)cc3s2)cc1 [BF-172] please.
2.9 % ID/g or ml

###

conditions: Slc:ICR, mouse, not told, iv
Listed here are molecules together with their documented Permeability into the brain: content in Plasma.

INSERT INTO results (molecule, observed_result) VALUES
  ('CN(C)c1ccc(-c2cn3cc(I)ccc3n2)cc1 [BF-130]', '2.4 % ID/g or ml'),
  ('CN(C)c1ccc(/C=C/c2ccc3ccccc3n2)cc1 [BF-179]', '1.7 % ID/g or ml'),
  ('Fc1ccc(/C=C/c2nc3ccccc3o2)cc1 [BF-208]', '0.53 % ID/g or ml');

Would you kindly look at the next entry?
So what does the record say about Permeability into the brain: content in Plasma for CNc1ccc(/C=C/c2nc3ccc(O)cc3o2)cc1 [BF-165] ?
1.9 % ID/g or ml

###

conditions: Slc:ICR, mouse, not told, iv
outcome-measure: Permeability into the brain: content in Brain

INSERT INTO assay_data (compound, observed_result) VALUES
  ('Nc1ccc(-c2ccc3ccccc3n2)cc1 [BF-170, 2-[(4-amino)phenyl]-quinoline]', '9.1 % ID/g or ml'),
  ('Nc1ccc(/C=C/c2nc3cc(F)ccc3o2)cc1', '5.5 % ID/g or ml'),
  ('Fc1ccc(/C=C/c2nc3ccccc3s2)cc1', '5.0 % ID/g or ml');

Would you kindly look at the next entry?
So what does the record say about Permeability into the brain: content in Brain for Nc1ccc(/C=C/c2ccc3ccccc3n2)cc1 [BF-177, 2-[2-(4-aminophenyl)ethenyl]quinoline] ?
8.2 % ID/g or ml

###

conditions: Slc:ICR, mouse, not told, iv
outcome-measure: Permeability into the brain: content in Brain

INSERT INTO measurements (compound, observed_result) VALUES
  ('CN(C)c1ccc(/C=C/c2nc3ccccc3s2)c(O)c1', '5.5 % ID/g or ml'),
  ('CN(C)c1ccc(-c2cn3cc(I)ccc3n2)cc1', '7.3 % ID/g or ml'),
  ('CN(C)c1ccc(-c2nc3ccccc3s2)cc1', '11.2 % ID/g or ml'),
  ('CN(C)c1ncc(/C=C/c2nc3ccccc3s2)s1', '19 % ID/g or ml'),
  ('CN(C)c1ncc(/C=C/c2ccc3ccccc3n2)s1', '13.0 % ID/g or ml');

So what does the record say about Permeability into the brain: content in Brain for CCN(CC)c1ccc(/C=C/c2nc3ccccc3[nH]2)cc1 ?
7.2 % ID/g or ml

Also, CN(C)c1ccc(/C=C/c2ccc3ccccc3n2)c(O)c1 please.
5.2 % ID/g or ml

Also, CNc1ccc(/C=C/c2nc3cc(F)ccc3o2)cc1 please.
4.4 % ID/g or ml

Also, CN(C)c1ccc(/C=C/c2ccc3ccccc3n2)cc1 please.
4.3 % ID/g or ml

Also, CN(C)c1ccc(-c2ccc3ccccc3n2)cc1 [Compound N-310, 2-[(4-dimethylamino)-phenyl]quinoline] please.
15 % ID/g or ml

Also, CCN(CC)c1ccc(-c2ccc3ccccc3n2)cc1 [Compound N-313, 2-[(4-diethylamino)-phenyl]quinoline] please.
4.6 % ID/g or ml

Also, C(=C\c1nc2ccccc2s1)/c1ccccc1 please.
11 % ID/g or ml

Also, C(=C\c1nc2ccccc2[nH]1)/c1ccccc1 please.
7.4 % ID/g or ml

Also, CNc1ccc(-c2ccc3ccccc3n2)cc1 [BF-158, 2-[(4-methylamino)-phenyl]quinoline] please.
9.7 % ID/g or ml

Also, Clc1ccc(/C=C/c2nc3ccccc3o2)cc1 please.
12.0 % ID/g or ml

Also, CNc1ccc(-c2nc3ccc(O)cc3s2)cc1 please.
4.9 % ID/g or ml

Also, CNc1ccc(/C=C/C=C/c2nc3ccccc3[nH]2)cc1 please.
4.8 % ID/g or ml

###

Listed here are compounds together with their documented Permeability into the brain: content in Brain.
conditions: Slc:ICR, mouse, not told, iv
Counter-ions that a name gives are not always drawn.

See these solved cases before continuing.
INSERT INTO results (compound, observed_result) VALUES
  ('CN(C)c1cnc(/C=C/c2nc3ccccc3o2)o1', '8.8 % ID/g or ml'),
  ('CNc1ccc(/C=C/c2nc3cc(I)ccc3o2)cc1', '2.4 % ID/g or ml'),
  ('CCN(CC)c1ccc(/C=C/c2nc3ccccc3s2)cc1 [BF-124, hydrochloride]', '2.4 % ID/g or ml');

Would you kindly look at the next entry?
So what does the record say about Permeability into the brain: content in Brain for CN(C)c1ccc(/C=C/c2nc3cc(F)ccc3o2)cc1 ?
5.5 % ID/g or ml

###

test system: ScN2a cells; conditions: mouse
outcome-measure: Concentration of inhibiting cell proliferation TC (µM)
Give the value in µM but do not write µM after it.

INSERT INTO assay_data (compound, assay_target, observed_result) VALUES
  ('CN(C)c1ccc(/C=C/c2nc3ccccc3s2)cc1', 'ScN2a cells', 50),
  ('Cc1cc2[nH]c(-c3ccc(N)cc3)nc2cc1N', 'ScN2a cells', 10),
  ('Nc1ccc(-c2nc3cc(N)ccc3s2)cc1', 'ScN2a cells', 10),
  ('Nc1ccc(C(=O)Nc2ccc(-c3nc4cc(N)ccc4o3)cc2)cc1', 'ScN2a cells', 10);

Record Cc1ccn2c(Br)c(-c3ccccc3)nc2c1 : what is its Concentration of inhibiting cell proliferation TC with ScN2a cells?
100

Also, CN(C)c1ccc2cc(-c3nc4cc(F)ccc4[nH]3)ccc2c1 please.
10

###

Listed here are compounds together with their documented Concentration of inhibiting cell proliferation TC.
test system: ScN2a cells; settings: mouse
Structures can show the parent of a compound that is named as a salt.

See these solved cases before continuing.
INSERT INTO measurements (compound, observed_result) VALUES
  ('Cc1ccc2nc(-c3ccc(NC(=O)c4ccc(Cl)cc4Cl)cc3)sc2c1', '>10 µM'),
  ('CN(C)c1ccc(/C=C/c2nc3ccc4ccccc4c3s2)cc1', '50 µM'),
  ('C(=C\c1nc2ccccc2o1)/c1ccccc1', '100 µM'),
  ('Clc1ccc2nc(-c3ccccc3)c(Br)n2c1', '100 µM'),
  ('Nc1ccc(-c2nc3ccc(N)c(Cl)c3[nH]2)cc1', '>10 µM');

So what does the record say about Concentration of inhibiting cell proliferation TC for c1ccc2cc(-c3cn4ccccc4n3)ccc2c1 [Compound N-437, hydrobromide] ?
100 µM
